system tested: GORASP1, Q9BQQ3
Sequence (Q9BQQ3 1-208): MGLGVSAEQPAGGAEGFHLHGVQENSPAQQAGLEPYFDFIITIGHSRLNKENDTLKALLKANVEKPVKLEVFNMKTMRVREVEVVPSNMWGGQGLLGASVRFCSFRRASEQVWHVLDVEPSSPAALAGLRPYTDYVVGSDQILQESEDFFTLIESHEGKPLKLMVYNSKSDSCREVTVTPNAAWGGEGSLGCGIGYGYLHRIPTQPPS
method: holdup assay
Parameters: key: below the threshold = too weak to quantify, mostly under pKd 3.1 to 4
condition parameters: plain residues with an end cap or a label only (N-terminal biotin on a linker: ado-ado)
readout: pKd

binder="FLVTEFNVML [DFNB31, Q9P202]" readout=pKd measured=4.32
binder="TKEIPNCTSV [SORCS3, Q9UPU3]" readout=pKd measured="below the threshold"
binder="EKPIDSETKM [SLC1A3, P43003]" readout=pKd measured="below the threshold"
binder="PSDSVGKDVF [EGLN1, Q9GZT9]" readout=pKd measured="below the threshold"
binder="GTMFLRETSL [GUCY1A2, P33402]" readout=pKd measured="below the threshold"
binder="QKASRNESTF [POLR1D, P0DPB6]" readout=pKd measured="below the threshold"
binder="FVFESRKEIL [TBPL1, P62380]" readout=pKd measured=3.57
binder="SRPHTNETSL [MCC, P23508]" readout=pKd measured="below the threshold"
binder="GSQSQVETEA [FKBP4, Q02790]" readout=pKd measured="below the threshold"
